Target: T1, Rhesus SLC34A2 (Rhesus, UniProt F7HDA3 1-690)
T1 construct: whole, on cells
T1 sequence: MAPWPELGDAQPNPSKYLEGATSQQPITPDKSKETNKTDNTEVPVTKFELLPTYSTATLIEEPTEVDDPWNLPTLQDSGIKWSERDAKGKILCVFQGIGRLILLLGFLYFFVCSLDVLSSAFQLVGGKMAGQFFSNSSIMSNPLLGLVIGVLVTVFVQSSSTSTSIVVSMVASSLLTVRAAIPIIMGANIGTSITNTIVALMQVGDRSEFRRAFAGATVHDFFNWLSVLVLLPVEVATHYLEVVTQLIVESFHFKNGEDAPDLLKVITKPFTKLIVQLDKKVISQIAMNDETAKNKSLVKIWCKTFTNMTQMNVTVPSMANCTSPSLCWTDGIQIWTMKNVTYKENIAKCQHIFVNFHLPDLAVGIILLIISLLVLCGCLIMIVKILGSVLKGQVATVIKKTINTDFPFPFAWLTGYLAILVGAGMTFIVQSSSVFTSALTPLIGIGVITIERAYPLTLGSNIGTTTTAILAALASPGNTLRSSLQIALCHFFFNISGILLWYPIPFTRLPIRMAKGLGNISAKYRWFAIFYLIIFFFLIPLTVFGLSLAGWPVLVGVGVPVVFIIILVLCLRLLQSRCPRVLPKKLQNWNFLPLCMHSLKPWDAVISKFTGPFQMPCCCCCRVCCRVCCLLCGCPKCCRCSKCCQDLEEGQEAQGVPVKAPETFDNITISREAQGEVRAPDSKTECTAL
Experiment: FACS, HEK293/Rhesus SLC34A2 cells
Property: Top (MFI)

Use these answered entries as a reference point.
1) 30H9B8F9 VH_P1/VL hIgG1 (antibody, V domains shown, PTM-derisked chimeric, hIgG1; that P1 is the N=>S version follows from the humanized .p1 chains; also called 30H9B8F9.p1 hIgG1) VH: QVQLQQPGAELVKPGASVKMSCKTSGYTFTTNNMHWVKQTPGQGLEWIGAIYPGSGATAYNQKFKGKATLTADKSSSTAYMQLSSLTSEASAVYYCARGMYGHGAMDYWGQGTSVIVSS VL: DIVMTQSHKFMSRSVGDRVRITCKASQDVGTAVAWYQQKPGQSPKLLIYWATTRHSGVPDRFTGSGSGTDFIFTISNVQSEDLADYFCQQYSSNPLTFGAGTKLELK; 47400 MFI
2) 62G10E4G8 VH_P3/VL hIgG1 (antibody, V domains shown, PTM-derisked chimeric, hIgG1; that P3 is the NA version follows from the humanized .p3 chains; also called 62G10E4G8.p3 hIgG1) VH: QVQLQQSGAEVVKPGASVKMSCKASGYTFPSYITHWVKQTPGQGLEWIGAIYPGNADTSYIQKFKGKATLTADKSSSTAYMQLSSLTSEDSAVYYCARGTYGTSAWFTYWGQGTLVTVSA VL: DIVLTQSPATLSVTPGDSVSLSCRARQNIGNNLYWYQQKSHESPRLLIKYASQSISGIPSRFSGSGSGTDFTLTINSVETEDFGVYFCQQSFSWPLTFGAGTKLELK; 36500 MFI
3) xi30H9B8F9 hIgG1 (antibody, V domains shown, chimeric, hIgG1) VH: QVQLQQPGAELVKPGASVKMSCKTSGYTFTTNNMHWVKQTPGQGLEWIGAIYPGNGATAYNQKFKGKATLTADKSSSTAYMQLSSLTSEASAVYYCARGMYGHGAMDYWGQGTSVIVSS VL: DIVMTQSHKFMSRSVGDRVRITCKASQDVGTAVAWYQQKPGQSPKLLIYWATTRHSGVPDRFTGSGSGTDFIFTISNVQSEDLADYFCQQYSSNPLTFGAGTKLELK; 47900 MFI
4) 91C9F1.p1 hIgG1 (antibody, V domains shown, PTM-derisked chimeric, hIgG1; also called 91C9F1.pl hIgG1) VH: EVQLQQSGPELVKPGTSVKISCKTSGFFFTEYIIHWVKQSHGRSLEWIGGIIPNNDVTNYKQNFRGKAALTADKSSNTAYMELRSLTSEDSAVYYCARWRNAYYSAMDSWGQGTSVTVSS VL: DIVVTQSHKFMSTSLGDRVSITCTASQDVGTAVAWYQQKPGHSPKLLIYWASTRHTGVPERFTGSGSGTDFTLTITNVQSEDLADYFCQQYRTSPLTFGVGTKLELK; 26400 MFI

Task: Answer with reported Top (MFI) of 63A11D5B4 VH_P1/VL hIgG1 (antibody, V domains shown, PTM-derisked chimeric, hIgG1; that P1 is the SG version follows from the humanized .p1 chains; also called 63A11D5B4.p1 hIgG1) VH: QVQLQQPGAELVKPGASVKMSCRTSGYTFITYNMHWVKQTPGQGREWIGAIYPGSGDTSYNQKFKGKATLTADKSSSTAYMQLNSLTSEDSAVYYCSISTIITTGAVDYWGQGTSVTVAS VL: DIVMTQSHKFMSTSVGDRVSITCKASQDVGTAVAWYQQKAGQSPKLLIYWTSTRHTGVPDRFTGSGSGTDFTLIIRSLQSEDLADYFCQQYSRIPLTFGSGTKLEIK
Output: 39400 MFI

Where do these numbers come from? They come from patent US20240301052A1.
